Hey, just so you know, these numbers are from patent US20090238791A1.

system-under-test: T1, Recombinant human IL-15 (human, UniProt P40933 49-162)
T1 construct: also called rIL-15; human rIL-15
T1 sequence (P40933 49-162 limits assumed): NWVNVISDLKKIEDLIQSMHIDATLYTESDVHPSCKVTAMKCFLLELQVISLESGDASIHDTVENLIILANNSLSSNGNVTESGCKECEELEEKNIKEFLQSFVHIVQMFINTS
test-name: SPR, BIAcore 2000
measure-name: Kd (nM)
Report as a plain number; the unit nM is understood.

Given the binder sIL-15Rα-sushi (receptor, also called soluble sushi domain; not shown: Vector-encoded tag of pQE30; The protein was trapped on Ni-NTA agarose) ITCPPPMSVEHADIWVKSYSLYSRERYICNSGFKRKAGTSSLTECVLNKATNVAHWTTPSLKCIRD , what is its reported Kd?
1.5
